# Tested target: PDE1B (Homo sapiens (Human), UniProt Q01064)
# Sequence (Q01064 whole entry): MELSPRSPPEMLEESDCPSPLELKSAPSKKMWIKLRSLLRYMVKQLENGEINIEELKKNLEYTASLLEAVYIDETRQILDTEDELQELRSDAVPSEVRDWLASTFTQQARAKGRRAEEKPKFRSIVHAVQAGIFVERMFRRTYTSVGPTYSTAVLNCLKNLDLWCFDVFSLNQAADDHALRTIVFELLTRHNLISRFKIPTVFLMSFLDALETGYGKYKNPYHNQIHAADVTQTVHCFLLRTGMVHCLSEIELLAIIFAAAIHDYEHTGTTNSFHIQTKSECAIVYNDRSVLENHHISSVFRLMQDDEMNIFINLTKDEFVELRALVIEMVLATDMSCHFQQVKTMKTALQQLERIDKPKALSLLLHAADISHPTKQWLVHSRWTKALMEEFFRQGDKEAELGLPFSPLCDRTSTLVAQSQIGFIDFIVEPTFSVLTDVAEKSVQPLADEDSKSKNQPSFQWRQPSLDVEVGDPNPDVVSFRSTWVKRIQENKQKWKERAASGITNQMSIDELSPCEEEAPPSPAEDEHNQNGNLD
Would you mind telling me the reported pIC50 of each entry?
One number for each entry, as −log10 of the molar value.

INSERT INTO results (molecule, tested_target, readout_kind, measurement) VALUES
  ('COCc1cccc(-c2cc(N[C@@H]3CCOC3)c3c(cnn3C(C)C)n2)c1 [Example 45]', 'PDE1B (Homo sapiens (Human), UniProt Q01064)', 'pIC50', 6.47),
  ('CCCn1ncc2nc(-c3cccnc3OCC)cc(N[C@@H]3CCOC3)c21 (single isomer, unassigned) [Example 24]', 'PDE1B (Homo sapiens (Human), UniProt Q01064)', 'pIC50', 6.75),
  ('CC(C)n1ncc2nc(-c3cccnc3OC(C)(C)C)cc(N[C@@H]3CCOC3)c21 [Example 36]', 'PDE1B (Homo sapiens (Human), UniProt Q01064)', 'pIC50', 7.04),
  ('CCOc1ncccc1-c1ccn2c([C@H](C)CC)nc(C)c2n1 (single isomer, unassigned) [Example 83]', 'PDE1B (Homo sapiens (Human), UniProt Q01064)', 'pIC50', 8.22),
  ('CC(C)n1ncc2nc(-c3cncc(C#N)c3)cc(N[C@@H]3CCOC3)c21 [Example 44]', 'PDE1B (Homo sapiens (Human), UniProt Q01064)', 'pIC50', 5.40),
  ('CCOc1ncccc1-c1cc(N2CCC(C)(F)C2)c2c(cnn2C)n1 (racemic) [Example 87]', 'PDE1B (Homo sapiens (Human), UniProt Q01064)', 'pIC50', 6.42),
  ('COc1ccc(Cc2cc(N[C@@H]3CCOC3)c3c(cnn3C(C)C)n2)cc1 [Example 57]', 'PDE1B (Homo sapiens (Human), UniProt Q01064)', 'pIC50', 6.52);

Consider the additional molecule presented here.
Entry CCOc1ncccc1-c1cc(N[C@@H]2CCOC2)c2c(cnn2CC)n1 (single isomer, unassigned) [Example 19] has what pIC50?
7.07
